Please provide measured pEC50 for the entries that follow.
# System: 280 human cancer cell lines
# measurementDescription: OncoPanel cell proliferation assay (10-day)
# Assay type: cell-based
# assayConditions: Homo sapiens, SW579, SW579, Endocrine - Thyroid; read-out: Cell Count EC50
Answers are plain numbers, as −log10 of the molar value.

CC(C)=CCC[C@H](CO)[C@@H]1CC[C@@H](C)c2c1cc(C)c(O)c2O [Compound 1, 7,8,18-trihydroxyserrulat-14-ene] : 5.77
CC(C)=CCC[C@@H]1C(O)Oc2c(C)cc(O)c3c2[C@H]1CC[C@H]3C (stereo partly drawn) [Compound 2, 5,18-epoxyserrulat-14-en-8,18-diol] : 4.91

Read the next record carefully.
In: Query pEC50 on 280 human cancer cell lines for CC(C)=CCC[C@H](C)[C@@H]1CC[C@@H](C)c2c1cc(C)c(O)c2O [Compound 4, 7,8-dihydroxyserrulat-14-ene]
Out: 4.96

###

For each entry below, report its EC50 value.
# System: 280 human cancer cell lines
# measurementDescription: OncoPanel cell proliferation assay (10-day)
# Assay type: cell-based
# assayConditions: Homo sapiens, KPL-1, KPL-1, Breast; read-out: Cell Count EC50
Numbers only, in µM.

Reference set, count: 2
CC(C)=CCC[C@@H]1C(O)Oc2c(C)cc(O)c3c2[C@H]1CC[C@H]3C (stereo partly drawn) : 4.7
CC(C)=CCC[C@H](C)[C@@H]1CC[C@@H](C)c2c1cc(C)c(O)c2O [Compound 4, 7,8-dihydroxyserrulat-14-ene] : 4.18

We next turn to a different compound, shown below.
In: Fill in: EC50 of CC(C)=CCC[C@H](CO)[C@@H]1CC[C@@H](C)c2c1cc(C)c(O)c2O [Compound 1, 7,8,18-trihydroxyserrulat-14-ene] is ___
Out: 0.81

###

# Tested on: 280 human cancer cell lines
# measurementDescription: OncoPanel cell proliferation assay (10-day)
# Type: cell-based
# assayConditions: Homo sapiens, A-375, A375, Skin (Melanoma); read-out: Cell Count EC50
Task for the reader: assign each of the following compounds its reported EC50.
Please state the value followed by its unit.

// below: answered compounds
CC(C)=CCC[C@H](C)[C@@H]1CC[C@@H](C)c2c1cc(C)c(O)c2O [Compound 4, 7,8-dihydroxyserrulat-14-ene] : 5.74 µM
CC(C)=CCC[C@H](CO)[C@@H]1CC[C@@H](C)c2c1cc(C)c(O)c2O [Compound 1, 7,8,18-trihydroxyserrulat-14-ene] : 1.05 µM

In: Sample CC(C)=CCC[C@@H]1C(O)Oc2c(C)cc(O)c3c2[C@H]1CC[C@H]3C (stereo partly drawn) — what was its EC50?
Out: 6.45 µM

###

# Tested on: 280 human cancer cell lines
# measurementDescription: OncoPanel cell proliferation assay (10-day)
# Format: cell-based
# assayConditions: Homo sapiens, Hs 934.T, Skin (Melanoma); read-out: Cell Count EC50
parameter: pEC50
Give bare numbers, as −log10 of the molar value.

Report pEC50 for each item below.
1. CC(C)=CCC[C@H](CO)[C@@H]1CC[C@@H](C)c2c1cc(C)c(O)c2O [Compound 1, 7,8,18-trihydroxyserrulat-14-ene]
2. CC(C)=CCC[C@H](C)[C@@H]1CC[C@@H](C)c2c1cc(C)c(O)c2O [Compound 4, 7,8-dihydroxyserrulat-14-ene]

Out:
1: 5.60; 2: 4.95

The measured values listed here are drawn from patent US11331299B2.
